# Test system: ducksalad (Heteranthera limosa)
# protocol-text: Test B flooded paddy test
# Assay type: in vivo
# condition-description: Flood (flooded paddy test), 125 g ai/ha; scale 0 to 100, 0 is no effect, 100 is complete control; 13 to 15 days
The reader will find reported Plant response rating, Ducksalad values listed item by item below.
Write no unit; give the number alone.

Recorded Plant response rating, Ducksalad, per entry:
C#Cc1ccc(-c2ncc(C(=O)C3=C(O)CCCC3=O)c(=O)n2C2CCCCC2)cc1
90
CCCCn1c(-c2cccc(Cl)c2)ncc(C(=O)C2=C(O)CCCC2=O)c1=O
80
Cc1cc(-n2c(-c3ccccc3)ncc(C(=O)C3=C(O)CCCC3=O)c2=O)ccc1F
75
CCn1c(Cc2ccccc2)ncc(C(=O)C2=C(O)CCCC2=O)c1=O
85
COCCOCCn1c(-c2cc(F)cc(F)c2)ncc(C(=O)C2=C(O)CCCC2=O)c1=O
70
COCCn1c(-c2cccc(F)c2)ncc(C(=O)C2=C(O)C3CCC(C3)C2=O)c1=O (stereo not shown)
100

**Query** # get_value(readout='Plant response rating, Ducksalad', item= "CCc1ccc(-n2c(-c3cc(F)cc(F)c3)ncc(C(=O)C3=C(O)CCCC3=O)c2=O)cc1" )
**Result** 100

**Query** For the molecule "CCn1c(-c2cccc(Cl)c2)ncc(C(=O)C2=C(O)CCCC2=O)c1=O" , what Plant response rating, Ducksalad is on record?
**Result** 80

**Query** Which Plant response rating, Ducksalad value belongs to "O=C1CCCC(O)=C1C(=O)c1cnc(-c2cc(F)cc(F)c2)n(C2CCCCC2)c1=O" ?
**Result** 90

**Query** Request the reported Plant response rating, Ducksalad associated with "CCCCCn1c(-c2ccccc2)ncc(C(=O)C2=C(O)CCCC2=O)c1=O"
**Result** 100
